Below, each entry is listed alongside its reported Merocyanine Half-life.
EXPERIMENTAL DETAILS: Lifetimes (half-life) of the activated merocyanine surfactants in solvents
Type: physicochemical
STUDY CONDITIONS: in ethyl acetate; after 365 nm irradiation; error limits 10-20%
Description: Lifetimes of the activated zwitterionic merocyanine isomers of compounds 4a, 4b, 4c, and 4e in several solvents were determined. The spiropyran compound 4 was added to a solvent in a 1-cm quartz cuvette and the cuvette was irradiated with ultraviolet light at 365 nm for ˜60 seconds. […] Absorption spectra were recorded from 450 to 650 nm every 5 seconds over a 350-second observation time. […]
Kindly provide the numeric value in s only, without the unit symbol.

In the examples that follow, each entry is paired with its recorded Merocyanine Half-life.
[[record]]
compound_smiles = "CCCCCCCC[N+]1=C(/C=C/c2cc([N+](=O)[O-])ccc2[O-])C(C)(C)c2ccccc21"
assay_readout = "Merocyanine Half-life"
value_measured = 20

[[record]]
compound_smiles = "C[N+]1=C(/C=C/c2cc([N+](=O)[O-])ccc2[O-])C(C)(C)c2ccccc21"
assay_readout = "Merocyanine Half-life"
value_measured = 19

[[record]]
compound_smiles = "CCCC[N+]1=C(/C=C/c2cc([N+](=O)[O-])ccc2[O-])C(C)(C)c2ccccc21"
assay_readout = "Merocyanine Half-life"
value_measured = 23


Next up:
IN: Quick one: Merocyanine Half-life of "CCCCCCCCCCCCCCCCCC[N+]1=C(/C=C/c2cc([N+](=O)[O-])ccc2[O-])C(C)(C)c2ccccc21" ?
OUT: 20

----------
EXPERIMENTAL DETAILS: Lifetimes (half-life) of the activated merocyanine surfactants in solvents
Type: physicochemical
STUDY CONDITIONS: in octanol; longer than 350 s monitoring, by extrapolation of exponential fit; error limits 10-20%
ASSAY READOUT: Merocyanine Half-life
I'd appreciate it if you wrote the number followed by its unit.

Here is how some compounds turned out for Merocyanine Half-life.
[[record]]
compound_smiles = "CCCCCCCC[N+]1=C(/C=C/c2cc([N+](=O)[O-])ccc2[O-])C(C)(C)c2ccccc21"
assay_readout = "Merocyanine Half-life"
value_measured = "10.2 min"

[[record]]
compound_smiles = "CCCC[N+]1=C(/C=C/c2cc([N+](=O)[O-])ccc2[O-])C(C)(C)c2ccccc21"
assay_readout = "Merocyanine Half-life"
value_measured = "10.2 min"

[[record]]
compound_smiles = "CCCCCCCCCCCCCCCCCC[N+]1=C(/C=C/c2cc([N+](=O)[O-])ccc2[O-])C(C)(C)c2ccccc21"
assay_readout = "Merocyanine Half-life"
value_measured = "13.8 min"


Let's switch to this compound now.
IN: // query Merocyanine Half-life value for entry "C[N+]1=C(/C=C/c2cc([N+](=O)[O-])ccc2[O-])C(C)(C)c2ccccc21"
OUT: 10.2 min

----------
EXPERIMENTAL DETAILS: Lifetimes (half-life) of the activated merocyanine surfactants in solvents
Assay type: physicochemical
STUDY CONDITIONS: in toluene; after 365 nm irradiation; error limits 10-20%
ASSAY READOUT: Merocyanine Half-life (s)
Kindly answer with a numeric value in s, unit omitted.

IN: Which Merocyanine Half-life reading was recorded for the compound "CCCCCCCC[N+]1=C(/C=C/c2cc([N+](=O)[O-])ccc2[O-])C(C)(C)c2ccccc21" ?
OUT: 38

IN: If you can, please state the reported Merocyanine Half-life value of "C[N+]1=C(/C=C/c2cc([N+](=O)[O-])ccc2[O-])C(C)(C)c2ccccc21" .
OUT: 16

IN: Need Merocyanine Half-life of "CCCCCCCCCCCCCCCCCC[N+]1=C(/C=C/c2cc([N+](=O)[O-])ccc2[O-])C(C)(C)c2ccccc21" , thanks.
OUT: 49

IN: If you can, please state the reported Merocyanine Half-life value of "CCCC[N+]1=C(/C=C/c2cc([N+](=O)[O-])ccc2[O-])C(C)(C)c2ccccc21" .
OUT: 32
